assay: Inhibition of HIV1 gp41- induced cell-cell fusion between viral envelope expressed in human HL2/3 cells to CD4/CCR5 receptor expressed TZM-bl cells after 6 hrs by luciferase assay
Measured IC50 by item
value-kind: IC50 (nM)

substance	value-kind	value-unit	readout-value
H-RIQQIEQKIHHIEQRIQQIEQRIEAQQHLLQLTVWGIKQLQARIL-OH	IC50	nM	39
H-RIQQIEQKIHHIEQRIQQIEQRISGIVQQQNNLLRIEAQQHLLQLTVWGIKQLQARIL-OH	IC50	nM	82
H-RIQQIEQKIHHIEQRIQQIEQLLQLTVWGIKQLQARIL-OH	IC50	nM	251
H-YTSLIHSLIEEQNQQEKNEQELLELDKWALWNWF-OH	IC50	nM	2.5
